# Test system: MCF7
# procedure summary: Growth inhibition of human MCF7 cells after 48 hrs
# Type: functional
# test context: MCF7, 48 h
property: GI50 (µg/mL)

compound string: CC(=O)O[C@H]1[C@@H](OC(C)=O)[C@@H]2NC(=O)c3c(cc4c(c3O)OCO4)[C@@]23OC(=S)O[C@H]3[C@@H]1OC(C)=O
comparison operator: >
endpoint value: 1
--
compound string: CC(=O)O[C@@H]1[C@@H](OC(C)=O)[C@H](OC(C)=O)[C@H]2c3cc4c(c(O)c3C(=O)N[C@H]2[C@@H]1OC(C)=O)OCO4
comparison operator: =
endpoint value: 2
--
compound string: CC(=O)Oc1c2c(cc3c1C(=O)N[C@@H]1C3=C[C@H](OC(C)=O)[C@@H](OC(C)=O)[C@H]1OC(C)=O)OCO2
comparison operator: =
endpoint value: 0.088
--
compound string: CC(=O)O[C@@H]1[C@H](OC(C)=O)[C@@H](OC(C)=O)C=C2c3cc4c(c(O)c3C(=O)N[C@H]21)OCO4
comparison operator: =
endpoint value: 0.06
--
compound string: CC(=O)O[C@@H]1[C@@H](OC(C)=O)[C@H](O)[C@H]2c3cc4c(c(O)c3C(=O)N[C@H]2[C@@H]1OC(C)=O)OCO4
comparison operator: >
endpoint value: 1
--
compound string: O=C1N[C@H]2[C@H](O)[C@H](O)[C@@H](O)[C@H](O)[C@H]2c2cc3c(c(O)c21)OCO3
comparison operator: =
endpoint value: 0.27
--
compound string: CC(=O)Oc1c2c(cc3c1C(=O)N[C@H]1[C@H](OC(C)=O)[C@H](OC(C)=O)[C@@H](OC(C)=O)[C@H](OC(C)=O)[C@@]31O)OCO2
comparison operator: >
endpoint value: 10
